FYI, the data here is from PubChem BioAssay AID2060495.

Test system: 521955-158-R2-J5-PDC complex spheroid viability
Assay: Anticancer human tumor 521955-158-R2-J5-PDC patient-derived pancreatic carcinoma cell line growth inhibition [GQUAD]
Settings: second compound 10 µM; first compound 0.0316 µM; hits give low values
Excerpt: DNA G-quadruplex Stabilizer Agents in Combinations in Complex Spheroids A high-throughput screen of multi-cell type tumor spheroids was designed to identify active combinations of DNA G-quadruplex stabilizer agents and targeted small molecules. […] Compounds. […] If the clinical Cmax for an agent had not been determined, the highest concentration tested was 10 microM. […]
Checkbox rule: viability, T/C lower than 10% = Fulfilled; viability, T/C not lower than 10% = Not fulfilled.

Consider the worked cases shown below.
{"compound": "CCc1c2c(nc3ccc(O)cc13)-c1cc3c(c(=O)n1C2)COC(=O)[C@]3(O)CC + Cc1[nH]c2ccc(F)cc2c1-c1nc2c3cccnc3c3ncccc3c2[nH]1", "subject.of.test": "521955-158-R2-J5-PDC complex spheroid viability", "assigned.category": "Fulfilled"}
{"compound": "O=c1[nH]cc(F)c(=O)[nH]1 + Cc1cnc(CNC(=O)c2c(=O)c3ccc(N4CCCN(C)CC4)nc3n3c2sc2ccccc23)cn1", "subject.of.test": "521955-158-R2-J5-PDC complex spheroid viability", "assigned.category": "Not fulfilled"}
{"compound": "CCc1c2c(nc3ccc(O)cc13)-c1cc3c(c(=O)n1C2)COC(=O)[C@]3(O)CC + CN(C)c1ccc(Nc2c3ccc(NC(=O)CCN4CCCC4)cc3nc3cc(NC(=O)CCN4CCCC4)ccc23)cc1", "subject.of.test": "521955-158-R2-J5-PDC complex spheroid viability", "assigned.category": "Not fulfilled"}
{"compound": "Cc1[nH]c2ccccc2c1CCNCc1ccc(/C=C/C(=O)NO)cc1 + CN(C)c1ccc(Nc2c3ccc(NC(=O)CCN4CCCC4)cc3nc3cc(NC(=O)CCN4CCCC4)ccc23)cc1", "subject.of.test": "521955-158-R2-J5-PDC complex spheroid viability", "assigned.category": "Not fulfilled"}

q: Say whether its viability, T/C is strictly beneath 10%. Entry: CC(=O)O[C@H]1C(=O)[C@@]2(C)[C@H]([C@H](OC(=O)c3ccccc3)[C@]3(O)C[C@H](OC(=O)[C@H](O)[C@@H](NC(=O)c4ccccc4)c4ccccc4)C(C)=C1C3(C)C)[C@]1(OC(C)=O)CO[C@@H]1C[C@@H]2O + Cc1cnc(CNC(=O)c2c(=O)c3ccc(N4CCCN(C)CC4)nc3n3c2sc2ccccc23)cn1
a: Fulfilled

###

system: 521955-158-R2-J5-PDC complex spheroid viability; test: Anticancer human tumor 521955-158-R2-J5-PDC cell line growth inhibition [GQUAD]; conditions: second compound 10 µM; first compound 0.0316 µM; active means viability on the fitted dose curve at most 10% of control; inactive means the rest;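 also: spheroids exposed to agents for one week before reading; 100% = DMSO vehicle control viability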
Field 'call' accepts active, inactive

{"molecule": "COc1ccc([C@@H](O)c2cc(-c3ncnc4cc(N5CCOCC5)ccc34)c(F)cc2Cl)nn1 + Cc1cnc(CNC(=O)c2c(=O)c3ccc(N4CCCN(C)CC4)nc3n3c2sc2ccccc23)cn1", "assigned.category": "inactive"}
{"molecule": "COc1cc(C2c3cc4c(cc3C(OC3OC5COC(C)OC5C(O)C3O)C3COC(=O)C23)OCO4)cc(OC)c1O (centres undefined) + Cc1cnc(CNC(=O)c2c(=O)c3ccc(N4CCCN(C)CC4)nc3n3c2sc2ccccc23)cn1", "assigned.category": "inactive"}
{"molecule": "CCc1c2c(nc3ccc(O)cc13)-c1cc3c(c(=O)n1C2)COC(=O)[C@]3(O)CC + Cc1cnc(CNC(=O)c2c(=O)c3ccc(N4CCCN(C)CC4)nc3n3c2sc2ccccc23)cn1", "assigned.category": "active"}

Turning now to a further record.
q: Field: outcome | Entry: C=CCn1c(=O)c2cnc(Nc3ccc(N4CCN(C)CC4)cc3)nc2n1-c1cccc(C(C)(C)O)n1 + Cc1cnc(CNC(=O)c2c(=O)c3ccc(N4CCCN(C)CC4)nc3n3c2sc2ccccc23)cn1
a: inactive

###

test system: 521955-158-R2-J5-PDC complex spheroid viability; test: Anticancer human tumor 521955-158-R2-J5-PDC cell line growth inhibition [GQUAD]; conditions: second compound 10 µM; first compound 0.0316 µM; hits give low values;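 also: spheroids exposed to agents for one week before reading; 100% = DMSO vehicle control viability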
quantity.name: viability, T/C (%)
Field format: number, assumed %, no unit text.

Worked cases, answers included:
{"compound": "Cc1cccc(N(C)C(=O)C2C(O)CCN2c2nc(C)cc(C(F)(F)F)c2C#N)c1 (stereo unspecified) + CN(C)c1ccc(Nc2c3ccc(NC(=O)CCN4CCCC4)cc3nc3cc(NC(=O)CCN4CCCC4)ccc23)cc1", "unit.symbol": "%", "viability, T/C": 67.2}
{"compound": "O=C(NO)c1cnc(N2CCN(S(=O)(=O)c3ccc4ccccc4c3)CC2)nc1 + Cc1cnc(CNC(=O)c2c(=O)c3ccc(N4CCCN(C)CC4)nc3n3c2sc2ccccc23)cn1", "unit.symbol": "%", "viability, T/C": 11.8}
{"compound": "Cn1ncnc1[C@H]1c2n[nH]c(=O)c3cc(F)cc(c23)N[C@@H]1c1ccc(F)cc1 + Cc1[nH]c2ccc(F)cc2c1-c1nc2c3cccnc3c3ncccc3c2[nH]1", "unit.symbol": "%", "viability, T/C": 86.1}
{"compound": "CC1COCCN1c1cc(-c2ccnn2C)c2ccnc(-c3ccn[nH]3)c2n1 (stereo unspecified) + CN(C)c1ccc(Nc2c3ccc(NC(=O)CCN4CCCC4)cc3nc3cc(NC(=O)CCN4CCCC4)ccc23)cc1", "unit.symbol": "%", "viability, T/C": 50.1}
{"compound": "COc1ncnc(C2CC2)c1-c1ncc2cnn(Cc3ccc(-c4nc(C(F)(F)F)cn4C(C)C)cc3)c2n1 + Cc1cnc(CNC(=O)c2c(=O)c3ccc(N4CCCN(C)CC4)nc3n3c2sc2ccccc23)cn1", "unit.symbol": "%", "viability, T/C": 13}
{"compound": "COc1cc(C2c3cc4c(cc3C(OC3OC5COC(C)OC5C(O)C3O)C3COC(=O)C23)OCO4)cc(OC)c1O (stereo unspecified) + CN(C)c1ccc(Nc2c3ccc(NC(=O)CCN4CCCC4)cc3nc3cc(NC(=O)CCN4CCCC4)ccc23)cc1", "unit.symbol": "%", "viability, T/C": 79.1}
{"compound": "CC(C)(O)C1CCC(Nc2ccc3ncc(-c4cccc(C(F)(F)F)c4)n3n2)CC1 (stereo unspecified) + CN(C)c1ccc(Nc2c3ccc(NC(=O)CCN4CCCC4)cc3nc3cc(NC(=O)CCN4CCCC4)ccc23)cc1", "unit.symbol": "%", "viability, T/C": 70.4}
{"compound": "CC(=O)O[C@H]1C(=O)[C@@]2(C)[C@H]([C@H](OC(=O)c3ccccc3)[C@]3(O)C[C@H](OC(=O)[C@H](O)[C@@H](NC(=O)c4ccccc4)c4ccccc4)C(C)=C1C3(C)C)[C@]1(OC(C)=O)CO[C@@H]1C[C@@H]2O + CN(C)c1ccc(Nc2c3ccc(NC(=O)CCN4CCCC4)cc3nc3cc(NC(=O)CCN4CCCC4)ccc23)cc1", "unit.symbol": "%", "viability, T/C": 50.9}

q: Please give measured viability, T/C of the following entry: CC1COCCN1c1cc(C2(O)CC3CCC(C2)O3)c2cnn(-c3ccn[nH]3)c2n1 (stereo unspecified) + Cc1[nH]c2ccc(F)cc2c1-c1nc2c3cccnc3c3ncccc3c2[nH]1
a: 29.5

q: Please give measured viability, T/C of the following entry: O=C(NO)c1cnc(N2CCN(S(=O)(=O)c3ccc4ccccc4c3)CC2)nc1 + Cc1[nH]c2ccc(F)cc2c1-c1nc2c3cccnc3c3ncccc3c2[nH]1
a: 99.1

q: Please give measured viability, T/C of the following entry: CCCS(=O)(=O)Nc1ccc(F)c(C(=O)c2c[nH]c3ncc(-c4ccc(Cl)cc4)cc23)c1F + Cc1[nH]c2ccc(F)cc2c1-c1nc2c3cccnc3c3ncccc3c2[nH]1
a: 99.8

###

Parameter: viability, T/C. Scope: all listed entries.
tested on: 521955-158-R2-J5-PDC complex spheroid viability; experiment: Anticancer human tumor 521955-158-R2-J5-PDC cell line growth inhibition [GQUAD]; conditions: second compound 3.16 µM; first compound 0.1 µM; hits give low values;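 also: spheroids exposed to agents for one week before reading; 100% = DMSO vehicle control viability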
Field format: number, assumed %, no unit text.

{"compound": "CCCS(=O)(=O)Nc1ccc(F)c(C(=O)c2c[nH]c3ncc(-c4ccc(Cl)cc4)cc23)c1F + Cc1[nH]c2ccc(F)cc2c1-c1nc2c3cccnc3c3ncccc3c2[nH]1", "readout.value": 76}
{"compound": "CC1COCCN1c1cc(C2(S(C)(=N)=O)CC2)nc(-c2ccnc3[nH]ccc23)n1 (stereo not drawn) + Cc1cnc(CNC(=O)c2c(=O)c3ccc(N4CCCN(C)CC4)nc3n3c2sc2ccccc23)cn1", "readout.value": 23.6}

Alright, here's another compound for you.
q: Please give measured viability, T/C of the following entry: C=CC(=O)N1CCN(c2nc(=O)n(-c3c(C)ccnc3C(C)C)c3nc(-c4c(O)cccc4F)c(F)cc23)C(C)C1 (stereo not drawn) + Cc1[nH]c2ccc(F)cc2c1-c1nc2c3cccnc3c3ncccc3c2[nH]1
a: 105
